# Read-out: Heat shock 70 kDa protein 1 (HSPA1A), gene 3303
# assayText: LTEA_HepaRG_HSPA1A: Life Technologies and Expression Analysis (LTEA) Assay for Heat shock 70 kDa protein 1 (HSPA1A) using HepaRG (AID 2283502)
# assayContext: mRNA level, 48 h; actives raise or lower the signal
Calls of active or inactive are those of the source. How the source made its calls: active means hit-call score of the fitted dose curve at least 0.9, where 1 is the maximum; inactive means score below 0.9.
Respond with a class label; see active, inactive

Solved entries:
{"compound": "Brc1ccc(Oc2ccccc2)cc1", "labelClass": "inactive"}
{"compound": "CO[C@@H]1[C@H](OC(=O)NC(=O)CCl)CC[C@]2(CO2)[C@H]1[C@@]1(C)O[C@@H]1CC=C(C)C", "labelClass": "inactive"}
{"compound": "O=C(Oc1ccc(Br)cc1)N1CCN2CCC1CC2", "labelClass": "inactive"}
{"compound": "CCCCOC(=O)c1ccccc1C(=O)OCc1ccccc1", "labelClass": "inactive"}
{"compound": "O=C1CCCO1", "labelClass": "inactive"}

GET /call?item= OCCCBr returns the recorded outcome of this test.
inactive

GET /call?item= [Cl-].[Cl-].[Hg+2] returns the recorded outcome of this test.
inactive

GET /call?item= O=C(N[C@H](c1ccccc1)[C@@H]1CN2CCC1CC2)c1c(Cl)ccc(C(F)(F)F)c1Cl returns the recorded outcome of this test.
active

GET /call?item= Oc1ccccc1Cl returns the recorded outcome of this test.
inactive

GET /call?item= COC(=O)c1ccccc1N returns the recorded outcome of this test.
inactive

GET /call?item= Clc1ccc(C(c2ccc(Cl)cc2)C(Cl)Cl)cc1 returns the recorded outcome of this test.
inactive

GET /call?item= Cc1ccc(N=C=O)cc1N=C=O returns the recorded outcome of this test.
active

GET /call?item= Nc1ccc([N+](=O)[O-])cc1 returns the recorded outcome of this test.
inactive

GET /call?item= Clc1ccc(C(c2ccc(Cl)cc2)C(Cl)(Cl)Cl)cc1 returns the recorded outcome of this test.
active

GET /call?item= CC(C)(O)c1cnn2c(-c3ccc(F)c(-c4c(F)cccc4C#N)c3)cnc2n1 returns the recorded outcome of this test.
inactive

GET /call?item= c1ccc2c(c1)-c1cccc3cccc-2c13 returns the recorded outcome of this test.
inactive

GET /call?item= ClCCOCCCl returns the recorded outcome of this test.
inactive

GET /call?item= CNC(=O)Oc1cccc2c1OC(C)(C)C2 returns the recorded outcome of this test.
inactive

meta.source: PubChem BioAssay (EPA / NIEHS)
